Values from the supplement of paper PMC9135407

Test system: primary human hepatic stellate cells (donor 1)
Experiment: scaled lipid accumulation score (0 = DMSO-like, 1 = nortriptyline-like); higher = stronger HSC inactivation (lipid re-accumulation), active = hit call of the paper
Conditions: library stock concentration: 6.6 mM; 48 h
Where a name gives a salt, the structure may show the parent alone. The campaign covered roughly 5,800 compounds. About 620 (11%) showed activity.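 How the source made its calls: active = score above a cut-off or among the top three wells of a plate; in these data no inactive exceeds 0.85.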 The sample holds actives, similar compounds and a random draw of the others, so the mix is not that of the screen.
Field 'call' accepts TRUE (active), FALSE (inactive)

CN1CCN2c3ccccc3Cc3ccccc3C2C1 (centres undefined) [Mianserin hydrochloride] = FALSE
CC(COc1ccccc1)N(CCCl)Cc1ccccc1 (centres undefined) [Phenoxybenzamine HCl] = FALSE
CNCCCN1c2ccccc2CCc2ccccc21 [Desipramine hydrochloride] = FALSE

# input for lookup
**Q:** Look up the recorded call for COc1cc2c3cc1Oc1c(OC)c(OC)cc4c1[C@@H](Cc1ccc(OC(=O)c5ccc([N+](=O)[O-])cc5)c(c1)Oc1ccc(cc1)C[C@@H]3N(C)CC2)N(C)CC4 [E6 berbamine] in this test.
**A:** TRUE

* * *

Tested on: primary human hepatic stellate cells (donor 1)
Assay: scaled lipid accumulation score (0 = DMSO-like, 1 = nortriptyline-like); higher = stronger HSC inactivation (lipid re-accumulation), active = hit call of the paper
Conditions: library stock concentration: 3.33 mM; 48 h
Among all 5,800 compounds or so, about 620 (11%) showed activity. The full list was thinned out, with actives kept by preference.
Measure Name: scaled lipid accumulation score

Observe how each entry below is paired with its result.
COC(=O)CCSCc1ccc(-c2onc(C)c2NC(=O)OC(C)c2ccccc2Cl)cc1 (stereo not given) = 0.07 (inactive)
Cc1ccc(NC(=O)c2ccc(CN3CCN(C)CC3)cc2)cc1Nc1nccc(-c2cccnc2)n1 [Imatinib (STI571)] = 0.133 (inactive)
CC1(C)CCCC2(C)C1CCC1(C)OC(=O)CC12 (stereo not given) [Sclareolide] = ≤ 0 (inactive)
O=C1CC(=O)c2c(Cl)c(Cl)c(Cl)c(Cl)c21 = ≤ -0.009 (inactive)

Please find the next compound below.
**Q:** Give the measured scaled lipid accumulation score for CNC(C)C(=O)NC(C(=O)N1CCCC1C(=O)NC(C(=O)NCCCCCCNC(=O)C(NC(=O)C1CCCN1C(=O)C(NC(=O)C(C)NC)C1CCCCC1)C(c1ccccc1)c1ccccc1)C(c1ccccc1)c1ccccc1)C1CCCCC1 (stereo not given)
**A:** 0.26 (inactive)

* * *

System: primary human hepatic stellate cells (donor 1)
Experiment: scaled lipid accumulation score (0 = DMSO-like, 1 = nortriptyline-like); higher = stronger HSC inactivation (lipid re-accumulation), active = hit call of the paper
Conditions: library stock concentration: 80 uM; 48 h
Among all 5,800 compounds or so, about 620 (11%) showed activity. The full list was thinned out, with actives kept by preference.
Measured scaled lipid accumulation score of individual entries

OCCCNc1cc(-c2ccnc(Nc3cccc(Cl)c3)n2)ccn1 = 0.137 (inactive)
Cc1cccc(-c2[nH]c(CNc3ccccc3F)nc2-c2ccc3ncnn3c2)n1 = ≤ -0.001 (inactive)
C[C@@H](Oc1cc(-n2cnc3ccc(CN4CCN(C)CC4)cc32)sc1C(N)=O)c1ccccc1C(F)(F)F = ≤ 0 (inactive)
O=C(Cc1ccc(-c2ccc(OCCN3CCOCC3)cc2)cn1)NCc1ccccc1 = 0.076 (inactive)

**Q:** Give the measured scaled lipid accumulation score for CC[C@@H]1C(=O)N(C)c2cnc(Nc3ccc(C(=O)NC4CCN(C)CC4)cc3OC)nc2N1C1CCCC1
**A:** 0.007 (inactive)

**Q:** Give the measured scaled lipid accumulation score for Oc1ccc(Nc2nc(-c3ccc(Cl)cc3)cs2)cc1
**A:** ≤ -0.001 (inactive)

* * *

System: primary human hepatic stellate cells (donor 1)
Test: scaled lipid accumulation score (0 = DMSO-like, 1 = nortriptyline-like); higher = stronger HSC inactivation (lipid re-accumulation), active = hit call of the paper
Conditions: library stock concentration: 80 uM; 48 h
In all, about 5,800 compounds went through this assay and about 620 (11%) showed activity. Shown is part of a subset that was picked to be rich in actives.
Measure Name: scaled lipid accumulation score

Observe how each entry below is paired with its result.
CCN1CCC(n2cc(CNc3cc(Cl)c4ncc(C#N)c(Nc5ccc(F)c(Cl)c5)c4c3)nn2)CC1 = ≤ -0.009 (inactive)
C[C@H]1Oc2cc(cnc2N)-c2c(nn(C)c2C#N)CN(C)C(=O)c2ccc(F)cc21 = ≤ 0 (inactive)
CNC(=O)Nc1ccc(-c2nc(N3CC4CCC(C3)O4)c3cnn(C4CCC5(CC4)OCCO5)c3n2)cc1 = ≤ 0 (inactive)
CN1CCN(c2ccc3nc(-c4c(N)c5c(F)cccc5[nH]c4=O)[nH]c3c2)CC1 = 0.779 (inactive)
c1cc(OCCN2CCCCC2)cc(-c2n[nH]c3ccc(-c4nnc[nH]4)cc23)c1 = ≤ -0.016 (inactive)
CCN(CC)CCCCNc1ncc2cc(-c3cc(OC)cc(OC)c3)c(NC(=O)NC(C)(C)C)nc2n1 = ≤ 0 (inactive)
c1ccc(-c2nn3c(c2-c2ccnc4cc(OCCN5CCOCC5)ccc24)CCC3)nc1 = ≤ -0.001 (inactive)
COc1cc(CCc2cc(NC(=O)c3ccc(N4CC(C)NC(C)C4)cc3)n[nH]2)cc(OC)c1 (centres undefined) = ≤ -0.016 (inactive)

**Q:** Give the measured scaled lipid accumulation score for O=C(O)Cc1c2ccccc2n2c1[nH]c(=O)c1ccccc12
**A:** ≤ -0.001 (inactive)

* * *

System: primary human hepatic stellate cells (donor 1)
Experiment: scaled lipid accumulation score (0 = DMSO-like, 1 = nortriptyline-like); higher = stronger HSC inactivation (lipid re-accumulation), active = hit call of the paper
Settings: library stock concentration: 10 mM; 48 h
Counter-ions that a name gives are not always drawn. Among all 5,800 compounds or so, about 620 (11%) showed activity.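 How the source made its calls: active = score above a cut-off or among the top three wells of a plate; in these data no inactive exceeds 0.85.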 What follows is part of a selection rich in actives, with near analogues and random picks from the rest.
Field 'call' accepts active, inactive

OC[C@H]1NC[C@H](O)[C@@H](O)[C@@H]1O [1-Deoxynojirimycin hydrochloride] = inactive
Oc1ccc(OC2CCCCO2)cc1 (configuration not stated) [Deoxyarbutin] = inactive
CC(C)(C)[C@]1(O)CCN2C[C@H]3c4ccccc4CCc4cccc(c43)[C@@H]2C1 [(+)-Butaclamol hydrochloride] = inactive

**Q:** Look up the recorded call for CCCCC(CC)COC(=O)CC(C(=O)OCC(CC)CCCC)S(=O)(=O)O (configuration not stated) in this test.
**A:** inactive

**Q:** Look up the recorded call for COc1cc(F)c(C(C)C)cc1-c1ccc(C(F)(F)F)cc1CN1C(=O)O[C@H](c2cc(C(F)(F)F)cc(C(F)(F)F)c2)[C@@H]1C [Anacetrapib (MK-0859)] in this test.
**A:** inactive

* * *

Measured scaled lipid accumulation score of individual entries
Test system: primary human hepatic stellate cells (donor 1)
Experiment: scaled lipid accumulation score (0 = DMSO-like, 1 = nortriptyline-like); higher = stronger HSC inactivation (lipid re-accumulation), active = hit call of the paper
Details: library stock concentration: 3.33 mM; 48 h
Where a name gives a salt, the structure may show the parent alone. Out of some 5,800 compounds screened, about 620 (11%) showed activity. Shown is part of a subset that was picked to be rich in actives.

Observe how each entry below is paired with its result.
CNC(=O)c1cc(Oc2ccc(NC(=O)Nc3ccc(Cl)c(C(F)(F)F)c3)cc2)ccn1 [Sorafenib Tosylate] = 0.005 (inactive)
CC(C)NC[C@@H](C(=O)N1CCN(c2ncnc3c2[C@H](C)C[C@H]3O)CC1)c1ccc(Cl)cc1 = 0.174 (inactive)
C[C@@H](NCCCc1cccc(C(F)(F)F)c1)c1cccc2ccccc12 [Cinacalcet HCl] = 0.207 (inactive)
O=C1NC(=O)C(c2c[nH]c3ccccc23)=C1c1c[nH]c2ccccc12 [Bisindolylmaleimide IV] = 0.045 (inactive)
CC(=O)O[C@]1(C(C)=O)CC[C@H]2[C@@H]3C=C(C)C4=CC(=O)CC[C@]4(C)[C@H]3CC[C@@]21C [Megestrol Acetate] = ≤ 0 (inactive)
CNC(=O)c1cc(Oc2ccc(NC(=O)Nc3ccc(Cl)c(C(F)(F)F)c3)c(F)c2)ccn1 = ≤ 0 (inactive)

**Q:** Lab note: record scaled lipid accumulation score of CNC(=O)c1cc(Oc2ccc(NC(=O)Nc3ccc(Cl)c(C(F)(F)F)c3)cc2)ccn1 [Sorafenib] tested on primary human hepatic stellate cells (donor 1).
**A:** ≤ 0 (inactive)

* * *

Test system: primary human hepatic stellate cells (donor 1)
Experiment: scaled lipid accumulation score (0 = DMSO-like, 1 = nortriptyline-like); higher = stronger HSC inactivation (lipid re-accumulation), active = hit call of the paper
Conditions: library stock concentration: 10 mM; 48 h
Structures can show the parent of a compound that is named as a salt. About 620 (11%) of roughly 5,800 compounds showed activity.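 How the source made its calls: active = score above a cut-off or among the top three wells of a plate; in these data no inactive exceeds 0.85.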 Only a selection was taken, and actives are over-represented in it overall.
Field 'call' accepts active, inactive

CCN(CC)CCOc1ccc2c(c1)C(=O)c1cc(OCCN(CC)CC)ccc1-2 = active
CNCc1ccc(-c2cc(-c3nc(-c4ccc(S(=O)(=O)C(C)C)cc4)cnc3N)on2)cc1 = inactive
Cc1ccc(-n2nc(C(C)(C)C)cc2NC(=O)Nc2ccc(OCCN3CCOCC3)c3ccccc23)cc1 [BIRB 796 (Doramapimod)] = inactive
CC(C)(C)c1cc(NC(=O)Nc2ccc(-c3cn4c(n3)sc3cc(OCCN5CCOCC5)ccc34)cc2)no1 = inactive
NC(Cn1ccc(=O)c(O)c1)C(=O)O (stereo not drawn) = inactive

**Q:** Look up the recorded call for Cc1ccc(-n2nc(C(C)(C)C)cc2NC(=O)Nc2ccc(OCCN3CCOCC3)c3ccccc23)cc1 in this test.
**A:** inactive

**Q:** Look up the recorded call for Clc1ccc2c(N3CCN(CCCN4CCN(c5ccnc6cc(Cl)ccc56)CC4)CC3)ccnc2c1 [Piperaquine tetraphosphate tetrahydrate] in this test.
**A:** inactive

**Q:** Look up the recorded call for NC1C=CC=C(C(=O)O)C1 (stereo not drawn) [Gabaculine hydrochloride] in this test.
**A:** inactive

**Q:** Look up the recorded call for O=C1NC(=O)C(c2cnc3ccccn23)=C1c1cn2c3c(cc(F)cc13)CN(C(=O)N1CCCCC1)CC2 in this test.
**A:** active

**Q:** Look up the recorded call for CC(C)c1cc(C(=O)N2Cc3ccc(CN4CCN(C)CC4)cc3C2)c(O)cc1O in this test.
**A:** inactive

**Q:** Look up the recorded call for CSc1ccc2c(c1)C(N1CCN(C)CC1)Cc1ccccc1S2.O=C(O)/C=C\C(=O)O (stereo not drawn) [Methiothepin maleate] in this test.
**A:** active

**Q:** Look up the recorded call for CNCCCN1c2ccccc2CCc2ccccc21.Cl in this test.
**A:** active

**Q:** Look up the recorded call for O=C(O)CCNc1cc(N2CCc3ccccc3CC2)nc(-c2cccnc2)n1 in this test.
**A:** inactive

**Q:** Look up the recorded call for O=C(OCC(O)CO)c1ccccc1Nc1ccnc2cc(Cl)ccc12 (stereo not drawn) in this test.
**A:** inactive

**Q:** Look up the recorded call for O=C(C[S+]([O-])Cc1ccco1)NC/C=C\COc1cc(CN2CCCCC2)ccn1 (stereo not drawn) in this test.
**A:** inactive

**Q:** Look up the recorded call for CCCn1cc(-c2ccnc(NC3CCN(Cc4cccnc4)CC3)n2)c(C)n1 in this test.
**A:** active
